target: human plasma renin (Homo sapiens); construct: from tissue; host or cells: human plasma; experiment: Renin inhibiting activities (human plasma, angiotensin I by radio immunoassay); format: biochemical; settings: pH7.4, 37° C., one hour, read-out: IC50 (50 % inhibition concentrations), renin inhibiting activity
Sequence (P00797 67-406): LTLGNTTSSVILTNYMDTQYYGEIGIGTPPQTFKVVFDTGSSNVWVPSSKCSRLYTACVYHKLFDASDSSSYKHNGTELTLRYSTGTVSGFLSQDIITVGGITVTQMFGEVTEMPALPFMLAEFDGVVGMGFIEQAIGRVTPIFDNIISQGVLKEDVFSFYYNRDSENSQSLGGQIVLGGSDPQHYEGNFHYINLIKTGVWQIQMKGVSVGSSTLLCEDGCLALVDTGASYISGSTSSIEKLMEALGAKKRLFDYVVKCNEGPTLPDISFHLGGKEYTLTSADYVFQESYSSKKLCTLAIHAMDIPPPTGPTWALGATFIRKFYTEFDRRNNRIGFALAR
pIC50: −log10 of the molar value.
Experimental Readout: pIC50

{"columns": ["Compound", "Val"],
 "data": [
  ["CCCC[C@H](NC(=O)[C@H](Cc1cccc2ccccc12)CS(=O)(=O)CC(COC(C)=O)=NOC)C(=O)N[C@@H](CC1CCCCC1)[C@@H](O)[C@@H](O)CN1CCOCC1", 9.10],
  ["CCCC[C@H](NC(=O)[C@H](Cc1cccc2ccccc12)CS(=O)(=O)CC(COC(C)=O)=NO)C(=O)N[C@@H](CC1CCCCC1)[C@@H](O)[C@@H](O)CN1CCOCC1", 8.21],
  ["CCCC[C@H](NC(=O)[C@H](Cc1cccc2ccccc12)CS(=O)(=O)C1CCCC1OC(C)=O)C(=O)N[C@@H](CC1CCCCC1)[C@@H](O)[C@@H](O)CN1CCOCC1 (stereo partly shown)", 8.51],
  ["CCCC[C@H](NC(=O)[C@H](Cc1cccc2ccccc12)C[S+]([O-])CC(COC(C)=O)OC(C)=O)C(=O)N[C@@H](CC1CCCCC1)[C@@H](O)[C@@H](O)CN1CCOCC1 (mixture of isomers) [Example 6 (having a high Rf value)]", 8.22],
  ["CCCC[C@H](NC(=O)[C@H](Cc1cccc2ccccc12)CS(=O)(=O)CC(COC(C)=O)(OCC)OCC)C(=O)N[C@@H](CC1CCCCC1)[C@@H](O)[C@@H](O)CN1CCOCC1", 8.41],
  ["CCCC[C@H](NC(=O)[C@H](Cc1cccc2ccccc12)CS(=O)(=O)CCOC(C)=O)C(=O)N[C@@H](CC1CCCCC1)[C@@H](O)[C@@H](O)CN1CCOCC1", 8.51],
  ["CCCC[C@H](NC(=O)[C@H](Cc1cccc2ccccc12)CS(=O)(=O)CC(COC)OC(C)=O)C(=O)N[C@@H](CC1CCCCC1)[C@@H](O)[C@@H](O)CN1CCOCC1 (mixture of isomers)", 8.72],
  ["CCCC[C@H](NC(=O)[C@H](Cc1cccc2ccccc12)CS(=O)(=O)CC(COC(C)=O)OC)C(=O)N[C@@H](CC1CCCCC1)[C@@H](O)[C@@H](O)CN1CCOCC1 (mixture of isomers) [Example 29]", 9.12],
  ["CCCC[C@H](NC(=O)[C@@H](CSCC(COC(C)=O)OC)Cc1cccc2ccccc12)C(=O)N[C@@H](CC1CCCCC1)[C@@H](O)[C@@H](O)CN1CCOCC1 (mixture of isomers)", 8.66],
  ["CCCC[C@H](NC(=O)[C@H](Cc1cccc2ccccc12)CS(=O)(=O)C1CCC(OC(C)=O)C1)C(=O)N[C@@H](CC1CCCCC1)[C@@H](O)[C@@H](O)CN1CCOCC1 (single isomer, unassigned) [Example 33 (having a low Rf value)]", 8.96]
]}
